- Target Desc: glycosylated human PAI-1 (active form) (human, UniProt P05121 24-402, glycosylated)
- Sequence (P05121 24-402 limits assumed): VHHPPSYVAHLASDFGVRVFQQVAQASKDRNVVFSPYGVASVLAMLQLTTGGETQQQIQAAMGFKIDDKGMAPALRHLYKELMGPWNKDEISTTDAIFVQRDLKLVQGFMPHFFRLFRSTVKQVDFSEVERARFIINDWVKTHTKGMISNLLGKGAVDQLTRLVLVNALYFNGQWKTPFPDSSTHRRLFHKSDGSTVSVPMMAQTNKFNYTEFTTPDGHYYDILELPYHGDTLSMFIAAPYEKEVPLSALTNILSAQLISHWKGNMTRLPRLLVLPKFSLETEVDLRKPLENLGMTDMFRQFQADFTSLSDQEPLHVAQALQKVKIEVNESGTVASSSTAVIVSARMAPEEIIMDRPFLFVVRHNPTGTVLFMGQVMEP
- Run Description: cell-based or functional assay
Assay Endpoint: Plasminogen Activation Y50% (%)
Number only, in %; omit the unit.

Binder	Plasminogen Activation Y50% [%]
A44-hv1 (antibody, V domains shown, humanized A44, HEK293; also called LC1a x HC1a; variant 1) VH: EMTLKESGPTLVKPTQTLSLTCSVTGDSMTNGYWNWIRKFPGKALEYMGYITYSGSTYYNPSLKGRISITRNTSKNQYYLTLSSVTTVDTATYYCARWHYGSPYYFDYWGQGTTLTVSS VL: DIKMTQSPSSLSASVGDRVTITCKASQDINSYLSWLQQKPGKSPKTLIYRANRSVDGVPSRFSGSGSGQDYSLTISSLQPEDLGIYYCLQYDEFPPTFGGGTKLEIK	58.5
A44-hv12 (antibody, V domains shown, humanized A44, HEK293; constant regions as for A44-hv1; also called LC4 x HC3; variant 12) VH: QMTLKESGPTLVKPTQTLSLTCSVSGDSMTNGYWNWIRQFPGKALEYMGYITYSGSTYYNPSLKGRITITRDTSKNQYYLTLSSVTTVDTATYYCARWHYGSPYYFDYWGQGTTLTVSS VL: DIKMTQSPSSLSASVGDRVTITCKASQDINSYLSWLQQKPGKSPKTLIYRAQRSVEGVPSRFSGSGSGQDYSLTISSLQPEDLATYYCLQYDEFPPTFGGGTKLEIK	76.7
A44-hv13 (antibody, V domains shown, humanized A44, HEK293; constant regions as for A44-hv1; also called LC2 x HC5b; variant 13) VH: QMQLQESGPGLVKPSETLSLTCTVSGDSMTNGYWNWIRQPPGKGLEYMGYITYSGSTYYNPSLKSRITISRDTSKNQYSLKLSSVTAADTAVYYCARWHYGSPYYFDYWGQGTLVTVSS VL: DIKMTQSPSSLSASVGDRVTITCKASQDINSYLSWLQQKPGKSPKTLIYRAQRSVEGVPSRFSGSGSGQDYSLTISSLQPEDLGIYYCLQYDEFPPTFGGGTKLEIK	71.1
A44 (antibody, mouse IgG1, V domains shown, mouse IgG1/kappa; also called mA44; A44 parental) VH: EMQLQESGPSLVKPSQTLSLTCSVTGDSMTNGYWNWIRKFPGNKLEYMGYITYSGSTYYNPSLKGRISITRNTSKNQYYLQLSSVTTEDTATYYCARWHYGSPYYFDYWGQGTTLTVSS VL: DIKMTQSPSSMYASLGERVTITCKASQDINSYLSWLQQKPGKSPKTLIYRANRSVDGVPSRFSGSGSGQDYSLTISSLEYEDMGIYYCLQYDEFPPTFGGGTKLEIKR	79.8
A44-hv11 (antibody, V domains shown, humanized A44, HEK293; compared with a human IgG1 isotype control; constant regions as for A44-hv1; also called A44V11; A44v11) VH: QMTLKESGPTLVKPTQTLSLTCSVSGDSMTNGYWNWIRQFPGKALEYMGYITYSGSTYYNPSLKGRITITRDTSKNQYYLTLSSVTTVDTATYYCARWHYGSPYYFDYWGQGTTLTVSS VL: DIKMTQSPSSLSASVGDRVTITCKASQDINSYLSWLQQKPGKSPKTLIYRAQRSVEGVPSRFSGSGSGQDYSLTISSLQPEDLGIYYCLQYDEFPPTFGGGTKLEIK	85.8

## Input What value of Plasminogen Activation Y50% has been recorded for this entry: A44-hv9 (antibody, V domains shown, humanized A44, HEK293; constant regions as for A44-hv1; also called LC5b x HC5b; variant 9) VH: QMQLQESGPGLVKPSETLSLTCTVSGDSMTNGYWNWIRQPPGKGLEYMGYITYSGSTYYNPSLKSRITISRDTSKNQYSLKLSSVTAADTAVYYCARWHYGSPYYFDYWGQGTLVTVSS VL: DIQMTQSPSSLSASVGDRVTITCKASQDINSYLSWLQQKPGKAPKTLIYRANRSVDGVPSRFSGSGSGQDYTFTISSLQPEDIATYYCLQYDEFPPTFGGGTKVEIK
## Output 50.9

## Input What value of Plasminogen Activation Y50% has been recorded for this entry: A44-hv14 (antibody, V domains shown, humanized A44, HEK293; constant regions as for A44-hv1; also called LC4 x HC5b; variant 14) VH: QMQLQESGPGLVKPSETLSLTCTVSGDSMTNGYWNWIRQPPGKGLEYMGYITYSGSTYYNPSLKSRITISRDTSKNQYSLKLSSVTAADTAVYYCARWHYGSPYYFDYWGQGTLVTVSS VL: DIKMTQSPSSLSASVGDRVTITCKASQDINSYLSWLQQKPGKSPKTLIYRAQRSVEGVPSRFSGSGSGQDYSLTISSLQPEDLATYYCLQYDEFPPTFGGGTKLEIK
## Output 61.2

All values here come from patent US20160200831A1.
